Assay: Oral bioavailability in Balb/c mouse at 30 mg/kg administered via spray-dried dispersion by LC-MS/MS analysis
Format: ADME, organism-based
Conditions: in vivo
endpoint: bioavailability (%)
The answer is to be given in %; state only the numeric part.

Q: Report bioavailability for CC(C)C(=O)N1CCC(c2cn(C)c3ncc(NC(=O)c4cccc(C#N)c4)c(C(F)(F)F)c23)CC1 please.
Result: 30

====

Assay: Apparent permeability in RRCK cells
Assay type: ADME, cell-based, Canis lupus familiaris, MDCKII-LE
Details: dog, MDCK
endpoint: Papp
Answer with the value and then the unit.

Q: Form field: reported Papp of CC(C)C(=O)N1CCC(c2cn(C)c3ncc(NC(=O)c4cccc(C#N)c4)c(C(F)(F)F)c23)CC1
Result: 13.2 ×10⁻⁶ cm/s
